Entry source: BigSolDB 2.1

# CONDITIONS: in 2-octanol, 282.95 K
READOUT LABEL: solubility (mole fraction)
API doc: respond with a numeric literal and nothing else, no unit.

Suppose we examine the molecule `CCCCCOC(=O)Nc1nc(=O)n([C@@H]2O[C@H](C)[C@@H](O)[C@H]2O)cc1F` ; what solubility (mole fraction) value has been reported? 0.0014

----------
# CONDITIONS: in sec-butanol, 307.65 K
READOUT LABEL: solubility (mole fraction)
API doc: respond with a numeric literal and nothing else, no unit.

Suppose we examine the molecule `CCCCCOC(=O)Nc1nc(=O)n([C@@H]2O[C@H](C)[C@@H](O)[C@H]2O)cc1F` ; what solubility (mole fraction) value has been reported? 0.014

----------
# CONDITIONS: in n-octanol, 283 K
READOUT LABEL: solubility (mole fraction)
API doc: respond with a numeric literal and nothing else, no unit.

Suppose we examine the compound `CCCCCOC(=O)Nc1nc(=O)n([C@@H]2O[C@H](C)[C@@H](O)[C@H]2O)cc1F` ; what solubility (mole fraction) value has been reported? 0.003

----------
# CONDITIONS: in n-butanol, 298 K
READOUT LABEL: solubility (mole fraction)
API doc: respond with a numeric literal and nothing else, no unit.

Suppose we examine the molecule `CCCCCOC(=O)Nc1nc(=O)n([C@@H]2O[C@H](C)[C@@H](O)[C@H]2O)cc1F` ; what solubility (mole fraction) value has been reported? 0.0106

----------
# CONDITIONS: in isobutanol, 278.26 K
READOUT LABEL: solubility (mole fraction)

Suppose we examine the compound `CCCCCOC(=O)Nc1nc(=O)n([C@@H]2O[C@H](C)[C@@H](O)[C@H]2O)cc1F` ; what solubility (mole fraction) value has been reported? 0.0012

----------
# CONDITIONS: in isobutanol, 298.02 K
READOUT LABEL: solubility (mole fraction)
API doc: respond with a numeric literal and nothing else, no unit.

Suppose we examine the compound `CCCCCOC(=O)Nc1nc(=O)n([C@@H]2O[C@H](C)[C@@H](O)[C@H]2O)cc1F` ; what solubility (mole fraction) value has been reported? 0.007

----------
# CONDITIONS: in ethanol, 322.13 K
READOUT LABEL: solubility (mole fraction)
API doc: respond with a numeric literal and nothing else, no unit.

Suppose we examine the compound `CCCCCOC(=O)Nc1nc(=O)n([C@@H]2O[C@H](C)[C@@H](O)[C@H]2O)cc1F` ; what solubility (mole fraction) value has been reported? 0.166

----------
# CONDITIONS: in 2-octanol, 298.45 K
READOUT LABEL: solubility (mole fraction)
API doc: respond with a numeric literal and nothing else, no unit.

Suppose we examine the compound `CCCCCOC(=O)Nc1nc(=O)n([C@@H]2O[C@H](C)[C@@H](O)[C@H]2O)cc1F` ; what solubility (mole fraction) value has been reported? 0.0036

----------
# CONDITIONS: in n-octanol, 278.65 K
READOUT LABEL: solubility (mole fraction)
API doc: respond with a numeric literal and nothing else, no unit.

Suppose we examine the compound `CCCCCOC(=O)Nc1nc(=O)n([C@@H]2O[C@H](C)[C@@H](O)[C@H]2O)cc1F` ; what solubility (mole fraction) value has been reported? 0.0022

----------
# CONDITIONS: in n-hexanol, 287.97 K
READOUT LABEL: solubility (mole fraction)
API doc: respond with a numeric literal and nothing else, no unit.

Suppose we examine the molecule `CCCCCOC(=O)Nc1nc(=O)n([C@@H]2O[C@H](C)[C@@H](O)[C@H]2O)cc1F` ; what solubility (mole fraction) value has been reported? 0.0038

----------
# CONDITIONS: in tert-butanol, 312.2 K
READOUT LABEL: solubility (mole fraction)
API doc: respond with a numeric literal and nothing else, no unit.

Suppose we examine the compound `CCCCCOC(=O)Nc1nc(=O)n([C@@H]2O[C@H](C)[C@@H](O)[C@H]2O)cc1F` ; what solubility (mole fraction) value has been reported? 0.0199

----------
# CONDITIONS: in n-heptanol, 297.63 K
READOUT LABEL: solubility (mole fraction)
API doc: respond with a numeric literal and nothing else, no unit.

Suppose we examine the compound `CCCCCOC(=O)Nc1nc(=O)n([C@@H]2O[C@H](C)[C@@H](O)[C@H]2O)cc1F` ; what solubility (mole fraction) value has been reported? 0.0065

----------
# CONDITIONS: in isopropanol, 312.14 K
READOUT LABEL: solubility (mole fraction)
API doc: respond with a numeric literal and nothing else, no unit.

Suppose we examine the compound `CCCCCOC(=O)Nc1nc(=O)n([C@@H]2O[C@H](C)[C@@H](O)[C@H]2O)cc1F` ; what solubility (mole fraction) value has been reported? 0.017

----------
# CONDITIONS: in n-hexanol, 322.25 K
READOUT LABEL: solubility (mole fraction)
API doc: respond with a numeric literal and nothing else, no unit.

Suppose we examine the compound `CCCCCOC(=O)Nc1nc(=O)n([C@@H]2O[C@H](C)[C@@H](O)[C@H]2O)cc1F` ; what solubility (mole fraction) value has been reported? 0.0461

----------
# CONDITIONS: in n-octanol, 322.05 K
READOUT LABEL: solubility (mole fraction)
API doc: respond with a numeric literal and nothing else, no unit.

Suppose we examine the compound `CCCCCOC(=O)Nc1nc(=O)n([C@@H]2O[C@H](C)[C@@H](O)[C@H]2O)cc1F` ; what solubility (mole fraction) value has been reported? 0.0307

----------
# CONDITIONS: in n-pentanol, 321.47 K
READOUT LABEL: solubility (mole fraction)
API doc: respond with a numeric literal and nothing else, no unit.

Suppose we examine the molecule `CCCCCOC(=O)Nc1nc(=O)n([C@@H]2O[C@H](C)[C@@H](O)[C@H]2O)cc1F` ; what solubility (mole fraction) value has been reported? 0.0555

----------
# CONDITIONS: in isopentanol, 307.06 K
READOUT LABEL: solubility (mole fraction)
API doc: respond with a numeric literal and nothing else, no unit.

Suppose we examine the compound `CCCCCOC(=O)Nc1nc(=O)n([C@@H]2O[C@H](C)[C@@H](O)[C@H]2O)cc1F` ; what solubility (mole fraction) value has been reported? 0.0193

----------
# CONDITIONS: in n-pentanol, 316.78 K
READOUT LABEL: solubility (mole fraction)
API doc: respond with a numeric literal and nothing else, no unit.

Suppose we examine the compound `CCCCCOC(=O)Nc1nc(=O)n([C@@H]2O[C@H](C)[C@@H](O)[C@H]2O)cc1F` ; what solubility (mole fraction) value has been reported? 0.0404

----------
# CONDITIONS: in isopropanol, 302.29 K
READOUT LABEL: solubility (mole fraction)
API doc: respond with a numeric literal and nothing else, no unit.

Suppose we examine the compound `CCCCCOC(=O)Nc1nc(=O)n([C@@H]2O[C@H](C)[C@@H](O)[C@H]2O)cc1F` ; what solubility (mole fraction) value has been reported? 0.0079

----------
# CONDITIONS: in n-hexanol, 308.55 K
READOUT LABEL: solubility (mole fraction)

Suppose we examine the molecule `CCCCCOC(=O)Nc1nc(=O)n([C@@H]2O[C@H](C)[C@@H](O)[C@H]2O)cc1F` ; what solubility (mole fraction) value has been reported? 0.0173

----------
# CONDITIONS: in n-propanol, 292.87 K
READOUT LABEL: solubility (mole fraction)
API doc: respond with a numeric literal and nothing else, no unit.

Suppose we examine the compound `CCCCCOC(=O)Nc1nc(=O)n([C@@H]2O[C@H](C)[C@@H](O)[C@H]2O)cc1F` ; what solubility (mole fraction) value has been reported? 0.0088

----------
# CONDITIONS: in ethanol, 292.84 K
READOUT LABEL: solubility (mole fraction)
API doc: respond with a numeric literal and nothing else, no unit.

Suppose we examine the molecule `CCCCCOC(=O)Nc1nc(=O)n([C@@H]2O[C@H](C)[C@@H](O)[C@H]2O)cc1F` ; what solubility (mole fraction) value has been reported? 0.0247

----------
# CONDITIONS: in ethylene glycol, 307.65 K
READOUT LABEL: solubility (mole fraction)
API doc: respond with a numeric literal and nothing else, no unit.

Suppose we examine the compound `CCCCCOC(=O)Nc1nc(=O)n([C@@H]2O[C@H](C)[C@@H](O)[C@H]2O)cc1F` ; what solubility (mole fraction) value has been reported? 0.0437

----------
# CONDITIONS: in isopropanol, 297.34 K
READOUT LABEL: solubility (mole fraction)
API doc: respond with a numeric literal and nothing else, no unit.

Suppose we examine the compound `CCCCCOC(=O)Nc1nc(=O)n([C@@H]2O[C@H](C)[C@@H](O)[C@H]2O)cc1F` ; what solubility (mole fraction) value has been reported? 0.0053

----------
# CONDITIONS: in n-heptanol, 313.25 K
READOUT LABEL: solubility (mole fraction)

Suppose we examine the compound `CCCCCOC(=O)Nc1nc(=O)n([C@@H]2O[C@H](C)[C@@H](O)[C@H]2O)cc1F` ; what solubility (mole fraction) value has been reported? 0.017
